Ref: ChEMBL document CHEMBL3352485

Recorded AUC(0-t) at 24 h for the following compounds
assayInfo: AUC (0 to 24 hrs) in Sprague-Dawley rat at 1 mg/kg, iv after 24 hrs by LC-MS/MS analysis
Assay type: ADME, organism-based
Parameters: time < 24 hr, dose 1 mg/kg, route intravenous
setupConditions: plasma
Where a SMILES comes first, the peptide text is derived from it. [ ]: non-standard residue; d: D form. Arg(Me) = CNC(=N)NCCC[C@H](N)C(=O)O; azaGly = NNC(=O)O
# output: bare number, implied unit ng·h/mL

Field: example entries. Status: answers known.
CNC(=N)NCCC[C@H](NC(=O)[C@H](CC(C)C)NC(=O)NNC(=O)[C@H](Cc1ccccc1)NC(=O)[C@@H](NC(=O)[C@H](CC(N)=O)NC(=O)[C@@H](Cc1ccncc1)NC(=O)[C@@H](Cc1ccc(O)cc1)NC(C)=O)[C@@H](C)O)C(=O)N[C@@H](Cc1c[nH]c2ccccc12)C(N)=O: 1260
CNC(=N)NCCC[C@H](NC(=O)[C@H](CC(C)C)NC(=O)NNC(=O)[C@H](Cc1ccccc1)NC(=O)[C@@H](NC(=O)[C@H](CC(N)=O)NC(=O)[C@@H](Cc1c[nH]c2ccccc12)NC(=O)[C@@H](Cc1ccc(O)cc1)NC(C)=O)[C@@H](C)O)C(=O)N[C@@H](Cc1c[nH]c2ccccc12)C(N)=O (Ac-[dY][dW]NTF[azaGly]L[Arg(Me)]W-NH2): 1220

Determine its reported AUC(0-t) at 24 h: CNC(=N)NCCC[C@H](NC(=O)[C@H](CC(C)C)NC(=O)NNC(=O)[C@H](Cc1ccccc1)NC(=O)[C@@H](NC(=O)[C@H](CC(N)=O)NC(=O)[C@@H](Cc1c[nH]c2ccccc12)NC(=O)[C@@H](Cc1ccc(O)cc1)NC(C)=O)[C@@H](C)O)C(=O)N[C@@H](Cc1ccccc1)C(N)=O 497
